Ki for Peptidyl-prolyl cis-trans isomerase FKBP1A (Homo sapiens), merged from several publications.
Numbers only; they are read as nM.

Data request: Which Ki is reported for this compound? COc1cc([C@@H](C(=O)N2CCCC[C@H]2C(=O)NC2(C(N)=O)CCCCC2)C2CCCCC2)cc(OC)c1OC
Data returned: 4300

Data request: Cc1ccc(S(=O)(=O)N2CCCCC2C(=O)OC(CCCc2ccccc2)CCCc2ccccc2)cc1 (stereo unspecified) , same question.
Data returned: 332

Data request: COc1cc2c(c(OC)c1)C1C3CCCC(C(=O)N1CC2)N3C(=O)C(O)c1ccc(Cl)cc1 (stereo unspecified) , same question.
Data returned: 208

Data request: CO[C@@H]1C[C@@H]2CC[C@@H](C)[C@@](O)(O2)C(=O)C(=O)N2CCCC[C@H]2C(=O)OC([C@H](C)C[C@@H]2C[C@@H]3C[C@H]2C[C@H]3O)CC(=O)[C@H](C)/C=C(\C)[C@@H](O)[C@@H](OC)C(=O)[C@H](C)C[C@H](C)/C=C/C=C/C=C/1C (stereo partly specified) , same question.
Data returned: 3.9
